Items are presented alongside their recorded pIC50.
Target: Human recombinant EE-tagged PDGFRβ (Homo sapiens, UniProt P09619)
Sequence (P09619 33-1106): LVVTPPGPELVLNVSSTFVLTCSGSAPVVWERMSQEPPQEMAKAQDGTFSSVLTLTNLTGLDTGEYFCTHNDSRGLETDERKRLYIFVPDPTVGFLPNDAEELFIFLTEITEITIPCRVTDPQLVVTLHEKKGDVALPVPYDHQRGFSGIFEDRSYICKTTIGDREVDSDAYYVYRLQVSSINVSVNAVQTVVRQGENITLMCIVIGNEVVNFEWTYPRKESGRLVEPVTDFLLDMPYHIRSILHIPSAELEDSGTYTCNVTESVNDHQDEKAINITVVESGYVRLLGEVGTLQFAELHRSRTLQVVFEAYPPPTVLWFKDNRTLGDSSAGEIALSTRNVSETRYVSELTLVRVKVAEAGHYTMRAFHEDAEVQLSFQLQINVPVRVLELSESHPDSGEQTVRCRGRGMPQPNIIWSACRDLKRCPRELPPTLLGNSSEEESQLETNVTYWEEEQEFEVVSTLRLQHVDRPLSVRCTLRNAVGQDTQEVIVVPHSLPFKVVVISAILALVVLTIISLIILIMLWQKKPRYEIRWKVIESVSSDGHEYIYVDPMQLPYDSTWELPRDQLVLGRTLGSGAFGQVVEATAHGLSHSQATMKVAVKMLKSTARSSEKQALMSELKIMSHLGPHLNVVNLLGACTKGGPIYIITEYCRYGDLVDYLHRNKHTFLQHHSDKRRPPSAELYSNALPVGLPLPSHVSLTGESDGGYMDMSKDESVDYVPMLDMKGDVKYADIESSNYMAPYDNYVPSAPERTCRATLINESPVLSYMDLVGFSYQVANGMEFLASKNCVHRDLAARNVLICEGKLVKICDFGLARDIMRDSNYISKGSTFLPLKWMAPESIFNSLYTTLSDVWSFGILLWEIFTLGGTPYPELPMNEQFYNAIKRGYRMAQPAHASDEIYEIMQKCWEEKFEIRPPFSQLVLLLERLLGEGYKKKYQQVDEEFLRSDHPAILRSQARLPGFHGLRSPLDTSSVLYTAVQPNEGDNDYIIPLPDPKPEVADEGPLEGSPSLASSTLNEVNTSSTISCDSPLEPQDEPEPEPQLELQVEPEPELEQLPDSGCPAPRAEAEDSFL
Assay: PDGFRβ IMAP Kinase Assay (fluorescence polarization)
Conditions: Kinase Enzyme Inhibition Assay; IMAP FP; FITC-labeled peptide substrate, ATP; 60 minutes at room temperature
pIC50: −log10 of the molar value.

| GIVEN SMILES | TARGET OR TEST SYSTEM | VALUE OPERATOR | pIC50 |
| --- | --- | --- | --- |
| O=C(Nc1cccc(OCc2csc3c(C(=O)NCCO)cncc23)c1)c1ccccc1 | Human recombinant EE-tagged PDGFRβ (Homo sapiens, UniProt P09619) | = | 6.00 |
| O=C(Nc1cccc(OCc2csc3c(C(=O)NCCO)cncc23)c1)c1cccc(Cl)c1 | Human recombinant EE-tagged PDGFRβ (Homo sapiens, UniProt P09619) | = | 6.95 |
| CCOC(=O)c1cncc2c(COc3cccc(NC(=O)c4cccc(OC)c4)c3)csc12 | Human recombinant EE-tagged PDGFRβ (Homo sapiens, UniProt P09619) | = | 6.36 |
| COc1cccc(C(=O)Nc2ccc(C)c(OCc3csc4c(C(=O)NCCO)cncc34)c2)c1 | Human recombinant EE-tagged PDGFRβ (Homo sapiens, UniProt P09619) | > | 4.70 |
| CCOC(=O)c1cncc2c(COc3cccc(NC(=O)c4ccc(F)cc4)c3)csc12 | Human recombinant EE-tagged PDGFRβ (Homo sapiens, UniProt P09619) | = | 6.47 |
